- System: Saccharomyces cerevisiae;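 note: PSI is a weighted mean of sequencing reads over stability bins, variants kept only with over 10 reads, mCherry proximal and sfGFP distal, peptide attached via GGGS linker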
- PROTOCOL TEXT: protein stability index of tFT-peptide fusion (C-terminal peptide) (PSI (0-1 scale)); higher = more stable (slower turnover)
- CONDITIONS: genetic background: das1 deletion; temperature: 30 C
# binarize protein stability index: threshold 0.3 inclusive, high side Yes, low side No

Here are 3 sequences together with their reported answers.
* LLFTFSLSFFFR | Yes
* LLYYQVFKTRRL | Yes
* WFLRLVGAVFAL | Yes

Could you tell me if the measured protein stability index of VLRCIWLCFLSV reaches 0.3 or more? Yes

Record LFHSIPRLLLLK ; criterion: protein stability index no lower than 0.3. Met? No

Test whether the sequence VLLFGLAFFFSF records protein stability index of 0.3 or higher. Yes

Is the recorded value of protein stability index equal to or greater than 0.3 for this sequence? DVLLVVVLGRFL Yes

Check the entry TSFSSGEALGVG : does protein stability index equal or exceed 0.3? Yes

I'd appreciate it if you could say whether VSGSFRVCFRVW has protein stability index at least equal to 0.3. Yes

Reference source for all entries: the supplement of paper PMC10724198
